- Test system: FLAP (5-lipoxygenase activating protein)
- ASSAY NOTES: In vitro binding test: displacement of [3H]-7-chloro-3-(5-((3-fluoropyridin-2-yl)methoxy)-2-methylphenyl)-3,4-dihydroquinazolin-2(1H)-one from Sf9 microsome fractions
- Parameters: species or system human and mouse
- CONDITION DESCRIPTION: Sf9 microsome fractions expressing FLAP; 100% = radioligand binding with 10 μM sodium 3-(3-(tert-butylsulfanyl)-1-(4-chlorobenzyl)-5-isopropyl-1H-indol-2-yl)-2,2-dimethylpropanoate, 0% = DMSO; test compound concentration not given
METRIC: inhibitory rate (%)

molecule="COCc1ccc2c(c1)NC(=O)N(c1cc(OCc3c(F)cccc3F)ccc1C)C2 [Example 193]" experimental_result=97
molecule="Cc1cc2c(cc1N1Cc3c(Cl)cnc(-c4c(C)nn(C)c4C)c3NC1=O)OC(c1ncccc1F)CC2 (single isomer, unassigned; (+)) [Example 14]" experimental_result=105
molecule="Cc1cc2c(cc1N1Cc3cccnc3NC1=O)OC(c1ncccc1F)CC2 (stereo not shown) [Example 40]" experimental_result=108
molecule="Cc1ccc(OCc2ncccc2Cl)cc1N1Cc2nn(C)cc2NC1=O [Example 265]" experimental_result=82
molecule="N#Cc1ccc(OCc2ncccc2F)cc1N1Cc2ccccc2NC1=O [Example 224]" experimental_result=87
molecule="COCCN1C(=O)N(c2cc3c(cc2Cl)CCC(c2ncccc2F)O3)Cc2c1ccnc2Cl (stereo not shown) [Example 55]" experimental_result=106
molecule="Cc1ccc(OCc2ncccc2F)cc1-n1c(=O)[nH]c2cc(OCC3CC3)ccc2c1=O [Example 349]" experimental_result=105
molecule="O=C1Nc2cccc(Cl)c2CN1c1cc(OCc2ncccc2F)ccc1Br [Example 277]" experimental_result=99
molecule="COC(=O)c1ccc2c(c1)NC(=O)N(c1cc(OCc3c(F)cccc3F)ccc1C(=O)OC)C2 [Example 176]" experimental_result=95
molecule="Cc1cc2c(cc1N1Cc3cc(Cl)ncc3NC1=O)OC(c1ncccc1F)CC2 (stereo not shown) [Example 43]" experimental_result=107
molecule="Cc1cc2c(cc1N1Cc3c(Cl)cnc(N(C)C)c3NC1=O)OC(c1ncccc1F)CC2 (stereo not shown) [Example 165]" experimental_result=104
molecule="Cc1cc2c(cc1N1Cc3c(ccnc3Cl)NC1=O)OC(c1ccccn1)CC2 (stereo not shown) [Example 51]" experimental_result=105
molecule="O=C(O)CCc1ccc(OCc2ncccc2F)cc1N1Cc2ccccc2NC1=O [Example 229]" experimental_result=76
molecule="Cn1cc(-c2ncc(F)c3c2NC(=O)N(c2cc4c(cc2Cl)CCC(c2ncccc2F)O4)C3)cn1 (stereo not shown) [Example 169]" experimental_result=92
molecule="Cc1ccc(OCc2ncccc2F)cc1-n1c(=O)[nH]c2cc(C(=O)NC3CC3)ccc2c1=O [Example 363]" experimental_result=97
molecule="Cc1cc2c(cc1N1Cc3c(ccnc3-c3ncco3)NC1=O)OC(c1ncccc1F)CC2 (stereo not shown) [Example 46]" experimental_result=104
molecule="Cc1ccc(OCc2c(F)cccc2F)cc1N1Cc2ccncc2NC1=O [Example 240]" experimental_result=76
molecule="O=C1Nc2ccccc2CN1c1cc(OCc2ncccn2)ccc1Br [Example 267]" experimental_result=100
molecule="Cc1ccc(OCc2ncccc2F)cc1-n1c(=O)[nH]c2cc(Cl)ccc2c1=O [Example 351]" experimental_result=107
